Reference for the values: ChEMBL document CHEMBL1201862

// values below are reported GI50
System: NCI-H522
Assay: NCI tumour cell line growth inhibition, 48 h
Active and inactive are the calls of the source. No stated cut-off is given here; in the data, active = GI50 up to about 1.1 µM and inactive = higher.
endpoint-name: GI50

{"compound": "CC1(C)COC2=C(C1)C(=O)c1ccccc1C2=O", "system-under-test": "NCI-H522", "measured-result": "1.85 µM (inactive)"}
{"compound": "CCCCCCCCCCCCCCCCCCOc1ccc(/C=C/C2=[N+](CCCl)CCO2)cc1", "system-under-test": "NCI-H522", "measured-result": "0.796 µM (active)"}
{"compound": "COc1ccccc1-n1c(N)c2c(C)c(-c3ccccc3)[nH]c2nc1=S", "system-under-test": "NCI-H522", "measured-result": "> 100 µM (inactive)"}
{"compound": "COc1ccc(-c2c(C(C)=O)c(C)n(C3OC(COC(C)=O)C(OC(C)=O)C(OC(C)=O)C3OC(C)=O)c(=S)c2C#N)cc1 (configuration not stated)", "system-under-test": "NCI-H522", "measured-result": "> 100 µM (inactive)"}
{"compound": "CC(=O)c1cc(S(=O)(=O)c2ccc(O)c(C(C)=O)c2)ccc1O", "system-under-test": "NCI-H522", "measured-result": "> 100 µM (inactive)"}
{"compound": "CNC(=S)Nc1sc2c(c1C#N)CCCC2", "system-under-test": "NCI-H522", "measured-result": "> 75 µM (inactive)"}
{"compound": "O=c1cccccc1NCCCCCCCCNc1cccccc1=O", "system-under-test": "NCI-H522", "measured-result": "75.3 µM (inactive)"}
{"compound": "COc1cc(Nc2nc3ccccc3nc2C(C)C)cc(OC)c1OC", "system-under-test": "NCI-H522", "measured-result": "81.7 µM (inactive)"}
{"compound": "Cc1cn([C@@H]2C[C@](C)(CO)N(C)O2)c(=O)[nH]c1=O", "system-under-test": "NCI-H522", "measured-result": "> 100 µM (inactive)"}
{"compound": "COC(=O)NN=C(c1ccc(Cl)cc1)c1ccc(Cl)cc1", "system-under-test": "NCI-H522", "measured-result": "> 100 µM (inactive)"}
{"compound": "COc1ccccc1/C=C(\\C#N)c1ccccc1", "system-under-test": "NCI-H522", "measured-result": "16.6 µM (inactive)"}
{"compound": "Cc1cc(=O)cc2sc3cc(Cl)ccc3nc1-2", "system-under-test": "NCI-H522", "measured-result": "2.54 µM (inactive)"}
{"compound": "O=C1C(c2ccc([N+](=O)[O-])cc2)=[N+]([O-])c2ccccc21", "system-under-test": "NCI-H522", "measured-result": "8.57 µM (inactive)"}
{"compound": "CCCCC1C=Cn2c(=O)oc3c(OC(C)C)c(C)c(O)c1c32 (configuration not stated)", "system-under-test": "NCI-H522", "measured-result": "1.24 µM (inactive)"}
{"compound": "COc1cccc(NCC(=O)Nn2c(-c3ccccc3)nc3ccccc3c2=O)c1", "system-under-test": "NCI-H522", "measured-result": "> 100 µM (inactive)"}
{"compound": "COc1ccccc1[C@@H]1CCC2CC[C@@H](c3ccccc3OC)[N+]21Cc1ccccc1 (some centres not stated)", "system-under-test": "NCI-H522", "measured-result": "1.33 µM (inactive)"}
{"compound": "CC1(O)CC(C(F)(F)F)(C(F)(F)F)OC1=O (configuration not stated)", "system-under-test": "NCI-H522", "measured-result": "> 10 µM (inactive)"}
{"compound": "CN(C)CCN1C(=O)N(CCN(C)C)c2c3cc(O)ccc3nc3c([N+](=O)[O-])ccc1c23", "system-under-test": "NCI-H522", "measured-result": "16.6 µM (inactive)"}
{"compound": "CN(C)CCC(/C=C/c1ccccc1)=N\\Nc1ccc(Cl)cc1", "system-under-test": "NCI-H522", "measured-result": "3.24 µM (inactive)"}
{"compound": "COC(=O)/C=C\\C(C#N)(C#N)/N=C/c1ccc(Br)cc1", "system-under-test": "NCI-H522", "measured-result": "0.489 µM (active)"}
{"compound": "COC(=O)C1=C(CCCCO[Si](C)(C)C(C)(C)C)NC(=O)N2[C@H](CCOCc3ccccc3)CC[C@@H]12", "system-under-test": "NCI-H522", "measured-result": "15.5 µM (inactive)"}
{"compound": "CC(C)C(C)/C=C\\C(C)C1CCC2C3=CC=C4CC(O)CCC4(C)C3CCC21C (configuration not stated)", "system-under-test": "NCI-H522", "measured-result": "38.6 µM (inactive)"}
{"compound": "CC(=O)OCC1OC(n2c3c(c(-c4ccco4)c(C#N)c2=S)CCCC3)C(OC(C)=O)C(OC(C)=O)C1OC(C)=O (configuration not stated)", "system-under-test": "NCI-H522", "measured-result": "16.3 µM (inactive)"}
{"compound": "COc1cccc(N2C(=O)C3c4[nH]c5ccccc5c4C4CCCC4C3C2=O)c1 (configuration not stated)", "system-under-test": "NCI-H522", "measured-result": "> 10 µM (inactive)"}
{"compound": "COc1ccc2c(c1)-c1[nH]c3ccccc3c1CC2", "system-under-test": "NCI-H522", "measured-result": "6.31 µM (inactive)"}
{"compound": "CC12CC(c3ccccc3O1)C(C(=O)Nc1ccc(F)cc1)C(=O)N2 (configuration not stated)", "system-under-test": "NCI-H522", "measured-result": "63.2 µM (inactive)"}
{"compound": "Cc1ccccc1NC(=O)c1cc2cc(/N=N/c3ccccc3C(=O)O)ccc2oc1=O", "system-under-test": "NCI-H522", "measured-result": "12.3 µM (inactive)"}
{"compound": "O=[N+]([O-])c1ccc(Oc2c(Cl)cc(S(=O)(=O)N/C(=N\\O)Nc3ccc(Cl)cc3)cc2Cl)c(Cl)c1", "system-under-test": "NCI-H522", "measured-result": "13 µM (inactive)"}
{"compound": "CC1=CCC(=O)[C@]2(C)C(CC(=O)O)[C@]3(C)C4=C(C)C(c5ccoc5)C[C@@H]4O[C@@H]3[C@H](O)[C@@H]12 (some centres not stated)", "system-under-test": "NCI-H522", "measured-result": "> 100 µM (inactive)"}
{"compound": "Cc1ccc2[nH]c(=N/c3ccccc3C)/c(=N\\c3ccccc3C)[nH]c2c1", "system-under-test": "NCI-H522", "measured-result": "10.2 µM (inactive)"}
{"compound": "Cc1ccc([S+]([O-])C(C)C(Cl)c2ccccc2)cc1 (configuration not stated)", "system-under-test": "NCI-H522", "measured-result": "28.9 µM (inactive)"}
{"compound": "N#C[C@H](OC1OC(COC2OC(CO)C(O)C(O)C2O)C(O)C(O)C1O)c1ccccc1 (some centres not stated)", "system-under-test": "NCI-H522", "measured-result": "> 200 µM (inactive)"}
{"compound": "OC(CC(O)(C(F)(F)Cl)C(F)(F)Cl)c1ccccc1 (configuration not stated)", "system-under-test": "NCI-H522", "measured-result": "> 10 µM (inactive)"}
{"compound": "Cc1ccc(-c2cn3c(nc4ccccc43)c(-c3ccccc3)n2)cc1", "system-under-test": "NCI-H522", "measured-result": "20.5 µM (inactive)"}
{"compound": "CC(=O)N1c2ccccc2[C@H]2CCc3c([nH]c4ccccc34)[C@H]21", "system-under-test": "NCI-H522", "measured-result": "20.4 µM (inactive)"}
{"compound": "COc1cc(C2c3cc4c(cc3[C@@H](OCCN)[C@H]3COC(=O)C23)OCO4)cc(OC)c1O (some centres not stated)", "system-under-test": "NCI-H522", "measured-result": "0.155 µM (active)"}
{"compound": "CCc1cc(O)c(Cl)c(C)c1Cl", "system-under-test": "NCI-H522", "measured-result": "11.7 µM (inactive)"}
{"compound": "Oc1cc2c3c(c1)c1cc4c(cc1c[n+]3CC2)OCO4", "system-under-test": "NCI-H522", "measured-result": "0.492 µM (active)"}
{"compound": "CCOc1ccc2[nH]c3c(C)c4cc[n+](C)cc4c(C)c3c2c1", "system-under-test": "NCI-H522", "measured-result": "1.11 µM (active)"}
{"compound": "O=C1C(Cl)=C(Nc2ccc(S(=O)(=O)O)cc2)C(=O)c2ccccc21", "system-under-test": "NCI-H522", "measured-result": "18.2 µM (inactive)"}
{"compound": "O=C(O)C1CCN(Cc2oc(CO)cc(=O)c2O)C1 (configuration not stated)", "system-under-test": "NCI-H522", "measured-result": "> 100 µM (inactive)"}
{"compound": "S=C(N/N=C(\\c1ccccc1)c1ccccn1)NC1CCCCC1", "system-under-test": "NCI-H522", "measured-result": "1.94 µM (inactive)"}
